Biological target: human calcium receptor (Homo sapiens, UniProt P41180)
Assay: Evaluation of antagonistic action on calcium receptor using reporter gene (luciferase)
Details: transformed rat adrenal derived cells, 5 mM calcium chloride, culture 4 hrs, luciferase activity; read-out: Reporter gene assay (IC50, concentration showing 50% inhibitory rate)
Experimental: Evaluation of Antagonistic Action on Calcium Receptor Using Reporter Gene Luciferase cDNA and human calcium receptor cDNA were introduced into a cell strain derived from rat adrenal to transform the cells, and the transformed cells were cultured in a medium (80 μl, F12 medium containing 0.5% dialyzed horse serum and 0.25% dialyzed bovine fetal serum). […] After culture for 4 hrs, luciferase substrate was added and the luciferase activity was measured with a photoluminometer. […]
Catalogue of pIC50 readings, one per entry.
Answer as the number alone; pIC50 is minus log10 of concentration in mol/L.

Consider the following illustrative entries.
CC(OC[C@H](O)CNC(C)(C)Cc1ccc2ccccc2c1)c1ccccc1[S+]([O-])c1ccc(C(=O)O)cc1 (stereo partly shown) [Example 2-17] = 6.83
Cc1ccc(CC(C)(C)NC[C@@H](O)CO[C@H](C)c2ccccc2-c2ccc(C(=O)O)c(Cl)c2)cc1F [Example 1-72] = 7.82

Identify the measured pIC50 of Cc1cc(C(=O)O)cc(-c2ccccc2[C@@H](C)OC[C@H](O)CNC(C)(C)Cc2ccc3ccccc3c2)c1 [Example 1-9] for human calcium receptor (Homo sapiens, UniProt P41180). 7.80

Identify the measured pIC50 of CCc1cc(-c2ccccc2[C@@H](C)OC[C@H](O)CNC(C)(C)Cc2ccc3ccccc3c2)ccc1C(=O)O [Example 1-30] for human calcium receptor (Homo sapiens, UniProt P41180). 8.15

Identify the measured pIC50 of Cc1ccc(CC(C)(C)NC[C@@H](O)COC(C)c2ccccc2C=Cc2ccc(C(=O)O)cc2)cc1F (stereo partly shown) [Example 2-11] for human calcium receptor (Homo sapiens, UniProt P41180). 7.68

Identify the measured pIC50 of Cc1ccc(CC(C)(C)NC[C@@H](O)CO[C@H](C)c2ccccc2-c2ccc(C(=O)O)c(C(C)(C)C)c2)cc1F [Example 1-98] for human calcium receptor (Homo sapiens, UniProt P41180). 7.89

Identify the measured pIC50 of Cc1cc(-c2ccccc2[C@@H](C)OC[C@H](O)CNC(C)(C)Cc2cccc(Cl)c2F)ccc1C(=O)O [Example 1-91] for human calcium receptor (Homo sapiens, UniProt P41180). 7.55

====

biological target: CYP2D6 (Homo sapiens); construct: purchased BD Bioscience; assay: Metabolic enzyme CYP2D6 inhibitory activity (inhibition measurement kit); format: in vitro ADME; conditions: human, CYP2D6 inhibition measurement kit (BD Bioscience); enzyme activity free of test compound as 100%; >10 means over 10 μM
Sequence (P10635 whole entry): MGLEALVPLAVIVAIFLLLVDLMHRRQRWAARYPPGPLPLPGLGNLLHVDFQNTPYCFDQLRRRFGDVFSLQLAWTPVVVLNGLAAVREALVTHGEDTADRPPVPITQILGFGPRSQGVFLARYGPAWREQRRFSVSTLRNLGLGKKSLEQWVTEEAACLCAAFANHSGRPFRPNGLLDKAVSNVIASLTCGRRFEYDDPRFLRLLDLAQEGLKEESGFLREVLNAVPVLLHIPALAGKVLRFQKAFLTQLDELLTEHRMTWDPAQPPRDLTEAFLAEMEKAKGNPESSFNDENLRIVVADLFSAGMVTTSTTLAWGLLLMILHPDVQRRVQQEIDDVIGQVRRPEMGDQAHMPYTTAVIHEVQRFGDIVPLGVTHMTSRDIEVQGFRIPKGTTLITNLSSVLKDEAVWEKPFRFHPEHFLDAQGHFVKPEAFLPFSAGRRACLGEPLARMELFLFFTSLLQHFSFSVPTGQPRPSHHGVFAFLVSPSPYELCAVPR
Measured endpoint: IC50
Number first, unit second: that is the form wanted.

What IC50 value was documented for this compound, "CC(C)c1cc(-c2ccccc2[C@@H](C)OC[C@H](O)CNC(C)(C)Cc2ccc3ccccc3c2)ccc1C(=O)O" ? 10 µM

====

Target: human calcium receptor (Homo sapiens, UniProt P41180)
Sequence (P41180 20-1078): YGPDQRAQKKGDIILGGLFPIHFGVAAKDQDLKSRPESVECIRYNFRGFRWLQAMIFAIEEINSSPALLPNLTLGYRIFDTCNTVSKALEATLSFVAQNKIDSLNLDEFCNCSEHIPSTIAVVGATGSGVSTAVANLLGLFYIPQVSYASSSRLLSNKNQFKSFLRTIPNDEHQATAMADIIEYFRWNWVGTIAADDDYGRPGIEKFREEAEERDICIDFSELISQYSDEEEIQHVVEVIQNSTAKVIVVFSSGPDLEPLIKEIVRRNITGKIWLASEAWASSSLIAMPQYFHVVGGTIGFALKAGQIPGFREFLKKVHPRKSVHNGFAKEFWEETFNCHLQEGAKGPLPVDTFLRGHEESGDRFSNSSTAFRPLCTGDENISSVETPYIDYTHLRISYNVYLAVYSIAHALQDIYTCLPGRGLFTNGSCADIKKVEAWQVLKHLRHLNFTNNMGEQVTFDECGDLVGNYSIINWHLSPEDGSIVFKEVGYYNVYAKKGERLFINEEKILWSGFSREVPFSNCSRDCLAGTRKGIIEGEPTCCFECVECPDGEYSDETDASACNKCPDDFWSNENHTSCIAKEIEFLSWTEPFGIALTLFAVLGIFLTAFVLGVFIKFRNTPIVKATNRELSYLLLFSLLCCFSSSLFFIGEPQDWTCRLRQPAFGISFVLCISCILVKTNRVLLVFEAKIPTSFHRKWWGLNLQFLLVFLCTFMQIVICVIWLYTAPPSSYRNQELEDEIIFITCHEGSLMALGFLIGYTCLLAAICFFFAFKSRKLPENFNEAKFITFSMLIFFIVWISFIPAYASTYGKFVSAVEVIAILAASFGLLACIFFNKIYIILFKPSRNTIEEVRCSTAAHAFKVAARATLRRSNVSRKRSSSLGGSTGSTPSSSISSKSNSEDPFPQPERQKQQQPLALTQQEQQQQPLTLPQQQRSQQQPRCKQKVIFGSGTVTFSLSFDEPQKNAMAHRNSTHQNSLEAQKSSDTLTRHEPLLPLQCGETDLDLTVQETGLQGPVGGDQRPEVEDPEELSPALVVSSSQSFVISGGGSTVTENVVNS
Test: Evaluation of antagonistic action on calcium receptor using reporter gene (luciferase)
Conditions: transformed rat adrenal derived cells, 5 mM calcium chloride, culture 4 hrs, luciferase activity; read-out: Reporter gene assay (IC50, concentration showing 50% inhibitory rate)
Catalogue of IC50 readings, one per entry.
Output spec: scalar in µM, unitless text.

Cc1cc(-c2ccccc2[C@@H](C)OC[C@H](O)CNC(C)(C)Cc2ccc3ccccc3c2)cc(C)c1C(=O)O [Example 1-40] = 0.003
CCCc1cc(-c2ccccc2[C@@H](C)OC[C@H](O)CNC(C)(C)Cc2ccc(C)c(F)c2)ccc1C(=O)O [Example 1-38] = 0.002
CC(C)(Cc1ccc2ccccc2c1)NC[C@@H](O)COC(c1ccccc1-c1ccc(C(=O)O)cc1F)C1CC1 (stereo partly shown) [Example 1-65] = 0.016
Cc1ccc(CC(C)(C)NC[C@@H](O)CO[C@H](C)c2ccccc2-c2ccc(C(=O)O)c(C)c2)cc1F [Example 1-15] = 0.012
Cc1cc(C(=O)O)ccc1-c1ccccc1C(OC[C@H](O)CNC(C)(C)Cc1ccc2ccccc2c1)C1CC1 (stereo partly shown) [Example 1-66] = 0.017

What IC50 value was documented for this compound, Cc1ccc(CC(C)(C)NC[C@@H](O)CO[C@H](C)c2ccccc2-c2ccc(C)c(C(=O)O)c2)cc1F [Example 1-86] ? 0.014

What IC50 value was documented for this compound, Cc1cc(-c2ccccc2C(OC[C@H](O)CNC(C)(C)Cc2ccc3ccccc3c2)C2CC2)ccc1C(=O)O (stereo partly shown) [Example 1-63] ? 0.016
